These data points were gathered from patent US10000542.

# study-target: human GLP-1 receptor (human, UniProt P43220 24-463)
# assay-summary: cell-based or functional assay
Numbered stars: 1 amine (or outer) side, 2 acyl side, 3 side chain; on linkers, the order of the positions; unused ones are H or OH. Square brackets hold non-standard residues; d marks the D form. Side chains are listed from the residue outwards. Ends that are not written are not given here. * marks the point of attachment. Dodecanoyl(12-OPh(4-COOH)) = O=C(O)c1ccc(OCCCCCCCCCCCC(=O)*)cc1; Undecanoyl(11-OPh(4-COOH)) = O=C(O)c1ccc(OCCCCCCCCCCC(=O)*)cc1; γGlu = O=C(O)[C@H](CCC(=O)[*:2])N[*:1]; εLys = N[C@@H](CCCCN[*:1])C(=O)[*:2]; AEEA = NCCOCCOCC(=O)O; Aib = CC(C)(N)C(=O)O
Please provide measured EC50/pM (0% HSA), In vitro potency (CRE luciferase) for the entries that follow.
Numbers only, in pM.

Worked set:
[
  {
    "binder": "XXEGTFTSDVSSYLEGQAAKEFIAWLVRGRK (not fully specified; Imp (imidazopropionyl, des-amino histidine) at 7; Aib at 8; Lys 26 and Lys 37 each acylated at the epsilon-amino group with the side chain given in the name (numbering of GLP-1(7-37)))",
    "reported-value": 7.9
  },
  {
    "binder": "H[Aib]EGTFTSDVSSYLEEQAAK([εLys-AEEA-AEEA-γGlu-Dodecanoyl(12-OPh(4-COOH))])EFIAWLVRGRK([εLys-AEEA-AEEA-γGlu-Dodecanoyl(12-OPh(4-COOH))])",
    "reported-value": 3.6
  }
]

For reference, reported EC50/pM (0% HSA), In vitro potency (CRE luciferase) for H[Aib]EGTFTSDVSSYLEEQAAK([εLys-AEEA-AEEA-γGlu-Undecanoyl(11-OPh(4-COOH))])EFIAWLVRGRK([εLys-AEEA-AEEA-γGlu-Undecanoyl(11-OPh(4-COOH))]) stands at 5.5
